FYI, the data here is from patent US12570671B2.

Target: Ikaros (Homo sapiens, UniProt Q13422+Q96SW2)
Sequence (Q13422 whole entry): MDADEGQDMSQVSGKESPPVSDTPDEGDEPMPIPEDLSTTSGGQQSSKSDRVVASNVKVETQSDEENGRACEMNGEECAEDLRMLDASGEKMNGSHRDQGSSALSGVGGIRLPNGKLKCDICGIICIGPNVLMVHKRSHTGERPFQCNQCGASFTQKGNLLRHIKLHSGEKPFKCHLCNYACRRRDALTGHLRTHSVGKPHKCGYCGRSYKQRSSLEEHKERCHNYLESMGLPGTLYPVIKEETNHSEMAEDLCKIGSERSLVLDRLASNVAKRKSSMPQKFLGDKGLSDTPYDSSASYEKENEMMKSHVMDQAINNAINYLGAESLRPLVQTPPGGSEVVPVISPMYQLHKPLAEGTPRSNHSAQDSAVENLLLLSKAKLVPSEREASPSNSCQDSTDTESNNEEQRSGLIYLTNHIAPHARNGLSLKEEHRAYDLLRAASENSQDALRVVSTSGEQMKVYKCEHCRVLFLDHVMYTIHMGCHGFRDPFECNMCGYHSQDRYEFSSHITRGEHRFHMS
Sequence (Q96SW2 whole entry): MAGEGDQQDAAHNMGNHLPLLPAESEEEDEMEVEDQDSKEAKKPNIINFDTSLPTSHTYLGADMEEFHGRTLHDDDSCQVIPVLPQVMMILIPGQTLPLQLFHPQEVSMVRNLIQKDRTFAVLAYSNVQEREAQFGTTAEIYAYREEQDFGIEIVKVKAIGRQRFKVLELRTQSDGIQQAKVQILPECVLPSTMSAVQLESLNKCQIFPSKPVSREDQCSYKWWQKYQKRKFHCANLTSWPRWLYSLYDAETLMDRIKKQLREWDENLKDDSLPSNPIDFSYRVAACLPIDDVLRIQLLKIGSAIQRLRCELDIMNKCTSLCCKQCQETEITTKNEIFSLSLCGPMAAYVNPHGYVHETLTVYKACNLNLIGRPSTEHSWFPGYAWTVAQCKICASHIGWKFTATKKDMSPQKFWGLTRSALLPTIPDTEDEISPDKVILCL
Sequence (Q16531 whole entry partner): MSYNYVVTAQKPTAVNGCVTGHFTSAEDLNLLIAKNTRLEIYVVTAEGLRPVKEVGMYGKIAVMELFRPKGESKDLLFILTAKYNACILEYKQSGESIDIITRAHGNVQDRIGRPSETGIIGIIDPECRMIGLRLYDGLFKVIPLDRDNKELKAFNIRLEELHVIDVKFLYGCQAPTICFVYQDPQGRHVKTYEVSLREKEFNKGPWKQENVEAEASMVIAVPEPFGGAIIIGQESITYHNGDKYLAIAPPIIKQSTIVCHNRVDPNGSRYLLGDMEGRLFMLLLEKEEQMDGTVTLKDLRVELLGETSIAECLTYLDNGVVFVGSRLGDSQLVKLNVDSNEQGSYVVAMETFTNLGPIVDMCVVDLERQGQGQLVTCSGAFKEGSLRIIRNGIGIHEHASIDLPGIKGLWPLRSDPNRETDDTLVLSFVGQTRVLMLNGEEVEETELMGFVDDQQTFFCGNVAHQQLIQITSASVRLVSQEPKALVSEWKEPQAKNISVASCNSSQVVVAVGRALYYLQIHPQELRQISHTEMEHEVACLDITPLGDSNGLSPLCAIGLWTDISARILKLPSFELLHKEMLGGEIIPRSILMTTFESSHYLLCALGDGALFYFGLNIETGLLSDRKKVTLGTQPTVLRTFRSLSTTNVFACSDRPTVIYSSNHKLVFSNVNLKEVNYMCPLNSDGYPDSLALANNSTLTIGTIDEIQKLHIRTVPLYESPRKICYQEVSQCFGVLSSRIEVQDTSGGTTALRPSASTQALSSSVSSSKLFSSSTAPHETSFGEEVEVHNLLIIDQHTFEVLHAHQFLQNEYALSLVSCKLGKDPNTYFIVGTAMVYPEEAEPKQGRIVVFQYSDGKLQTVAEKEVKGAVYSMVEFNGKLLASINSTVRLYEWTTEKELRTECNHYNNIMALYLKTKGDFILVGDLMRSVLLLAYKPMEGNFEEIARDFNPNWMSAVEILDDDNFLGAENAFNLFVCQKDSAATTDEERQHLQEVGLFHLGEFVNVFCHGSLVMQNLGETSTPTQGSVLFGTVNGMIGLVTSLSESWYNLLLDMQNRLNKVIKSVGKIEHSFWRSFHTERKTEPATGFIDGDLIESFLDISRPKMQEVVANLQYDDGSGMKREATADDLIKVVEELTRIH
Assay: Helios Cellular Degradation Assay (Ikaros readout)
Type: cell-based
Parameters: endogenous in cells; host or cells: Jurkat
Conditions: Jurkat cells, 72 h incubation, Ikaros-Alexa488 antibody staining, flow cytometry; read-out: Ikaros Jurkat IC50
experimental-readout: DC50

Ask | # input compound: CNc1cc(C)cc(-c2ccc3c(c2)CN(C2CCC(=O)NC2=O)C3=O)n1 (centres unmarked) ; wanted: its DC50
Reply | ≥ 10 µM

Ask | # input compound: CCNc1nc2ccccc2nc1-c1ccc2c(c1)CN(C1CCC(=O)NC1=O)C2=O (centres unmarked) ; wanted: its DC50
Reply | 0.31 µM

Ask | # input compound: Nc1nc(-c2ccc3c(c2)CN(C2CCC(=O)NC2=O)C3=O)cc2c1CCCC2 (centres unmarked) ; wanted: its DC50
Reply | ≥ 10 µM

Ask | # input compound: Nc1cc(C(F)(F)F)cc(-c2ccc3c(c2)CN(C2CCC(=O)NC2=O)C3=O)n1 (centres unmarked) [Example 120] ; wanted: its DC50
Reply | ≥ 10 µM

Ask | # input compound: COc1cc(-c2ccc3c(c2)CN(C2CCC(=O)NC2=O)C3=O)nc2ccccc12 (centres unmarked) ; wanted: its DC50
Reply | > 20 µM

Ask | # input compound: CC(=O)Nc1nc(-c2ccc3c(c2)CN(C2CCC(=O)NC2=O)C3=O)cc2ccccc12 (centres unmarked) ; wanted: its DC50
Reply | > 20 µM

Ask | # input compound: O=C1CCC(N2Cc3cc(-c4nccc(-c5cccnc5)n4)ccc3C2=O)C(=O)N1 (centres unmarked) ; wanted: its DC50
Reply | > 20 µM

Ask | # input compound: O=C1CCC(N2Cc3cc(-c4ccc5c(n4)NCCC5)ccc3C2=O)C(=O)N1 (centres unmarked) ; wanted: its DC50
Reply | ≥ 10 µM

Ask | # input compound: O=C1CCC(N2Cc3cc(-c4cc(O)c5ccccc5n4)ccc3C2=O)C(=O)N1 (centres unmarked) ; wanted: its DC50
Reply | > 20 µM

Ask | # input compound: CS(=O)(=O)N1CCN(c2cc(N)nc(-c3ccc4c(c3)CN(C3CCC(=O)NC3=O)C4=O)c2)CC1 (centres unmarked) ; wanted: its DC50
Reply | ≥ 10 µM

Ask | # input compound: CCN(CC)c1nc(-c2ccc3c(c2)CN(C2CCC(=O)NC2=O)C3=O)nc2ccc(Cl)cc12 (centres unmarked) ; wanted: its DC50
Reply | > 20 µM

Ask | # input compound: Cc1nc(-c2ccc3c(c2)CN(C2CCC(=O)NC2=O)C3=O)cc2ccccc12 (centres unmarked) ; wanted: its DC50
Reply | ≥ 20 µM

Ask | # input compound: CC(=O)O[C@@H]1CCOc2nc(-c3ccc4c(c3)CN([C@H]3CCC(=O)NC3=O)C4=O)ccc21 ; wanted: its DC50
Reply | ≥ 20 µM

Ask | # input compound: CNc1nc(-c2ccc3c(c2)CN(C2CCC(=O)NC2=O)C3=O)cc2ccccc12 (centres unmarked) ; wanted: its DC50
Reply | > 20 µM

Ask | # input compound: Nc1nc(-c2ccc3c(c2)CN(C2CCC(=O)NC2=O)C3=O)cc2ccccc12 (centres unmarked) ; wanted: its DC50
Reply | > 20 µM

Ask | # input compound: CC(C)c1nc2ccccc2nc1-c1ccc2c(c1)CN(C1CCC(=O)NC1=O)C2=O (centres unmarked) ; wanted: its DC50
Reply | ≥ 20 µM

Ask | # input compound: Nc1ccc([N+](=O)[O-])c(-c2ccc3c(c2)CN(C2CCC(=O)NC2=O)C3=O)n1 (centres unmarked) ; wanted: its DC50
Reply | > 20 µM
